Test: in vitro
Settings: rat
Reported Endpoint: IC50 at 72 h (µM)

Reference set (5 entries):
CCOc1ccc(-c2nonc2NC(=O)c2ccc(CN3CCCC3)cc2)cc1OCC [Compound 26] | 102
CCOc1ccc(-c2nonc2NC(=O)c2ccccc2C)cc1OCC [Compound 11] | 14.9
CCOc1ccc(-c2nonc2NC(=O)c2cccc(CN3CCCC3)c2)cc1OCC [Compound 28] | 77.2
CCOc1ccc(-c2nonc2NC(=O)c2ccc(OC)c(F)c2)cc1OCC [Compound 17] | 35
CCOc1ccc(-c2nonc2NC(=O)c2cccc(C)c2)cc1OCC [Compound 1] | 159

[1] CCOc1ccc(-c2nonc2NC(=O)c2ccc(OC)c(Cl)c2)cc1OCC [Compound 16]
[2] CCOc1ccc(-c2nonc2NC(=O)CN2CCCC2)cc1OCC [Compound 31]
IN: Could you determine which record has the numerically smaller IC50 at 72 h? Candidates: 1 and 2 Identify your pick by its label.
OUT: 1
(1: 20 µM, 2: 242 µM)

[A] CCOc1ccc(-c2nonc2NC(=O)c2cccc(F)c2)cc1OCC [Compound 14]
[B] CCOc1ccc(-c2nonc2NC(=O)CN2CCOCC2)cc1OCC [Compound 32]
IN: Of the two listed items, which has the higher IC50 at 72 h? First: A Second: B Provide the label of your selected option as the answer.
OUT: B
(B: 266 µM, A: 41.1 µM)

[1] CCOc1ccc(-c2nonc2NC(=O)CCN2CCCC2)cc1OCC [Compound 34]
[2] C[C@@H]1CC[C@H]2[C@@H](C)C(=O)O[C@@H]3O[C@@]4(C)CC[C@@H]1[C@]32OO4 [ART, artemisinin, reference compound]
IN: In terms of reported IC50 at 72 h, does 1 or 2 have the smaller number? # respond with the chosen item's label
OUT: 1
(1: 140 µM, 2: 450 µM)

[P] CCOc1ccc(-c2nonc2NC(=O)c2cccc(CN3CCOCC3)c2)cc1OCC [Compound 29]
[Q] CCOc1ccc(-c2nonc2NC(=O)c2ccccc2C(F)(F)F)cc1OCC [Compound 12]
IN: Given P and Q , report the one with the higher recorded IC50 at 72 h. Return value: the label identifying the chosen record.
OUT: P

[A] CCOc1ccc(-c2nonc2NC(=O)c2ccc(CN3CCOCC3)cc2)cc1OCC [Compound 27]
[B] Cc1cccc(C(=O)Nc2nonc2-c2ccccc2)c1 [Compound 39]
IN: # compare IC50 at 72 h for A vs B ; return the one with the smaller value Identify your selection by its label.
OUT: B
(B: 66 µM, A: 116 µM)

[a] CCOc1ccc(-c2nonc2NC(=O)c2cccc(OC(F)(F)F)c2)cc1OCC [Compound 15]
[b] CCOc1ccc(-c2nonc2NC(=O)CCN2CCOCC2)cc1OCC [Compound 35]
IN: Lab notebook, comparison: a versus b , higher IC50 at 72 h goes to which? Indicate your choice by writing its label.
OUT: b

[P] CCOc1ccc(-c2nonc2NC(=O)c2ccccc2)cc1OCC [Compound 10]
[Q] CCOc1ccc(-c2nonc2NC(=O)c2cccc(C(F)(F)F)c2)cc1OCC [Compound 13]
IN: Hi! Which is lower in terms of IC50 at 72 h, the first one P or the second one Q ? The response must carry the label of the picked entry.
OUT: Q
(Q: 9.97 µM, P: 111 µM)
